# credit: the RNAGym collection of RNA variant scans (doi:10.7554/elife.80360)

B1: CPEB3 Ribozyme (parent)
chain: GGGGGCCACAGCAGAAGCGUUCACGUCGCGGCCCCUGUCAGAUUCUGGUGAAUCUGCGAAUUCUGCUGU

Variants of: B1
Experiment: self-cleavage, relative activity (ratio to wild type); higher = more cleavage; co-transcriptional
Output schema: class label derived from self-cleavage. Mapping: band 1: < 0.3; band 2: ≥ 0.3 and < 0.7; band 3: ≥ 0.7

Known results for variants:
> print(dat)
   mutant.code  class.name
1     C7U C27U      band 1
2    A13C G28A      band 1
3     G4U U38C      band 2
4    U38G G68A      band 1
5    G14U C54A      band 1

Would you kindly look at the next entry?
Query: Lab note: which band did A59G C66G land in?
Response: band 3
